Taken from patent US10100010B1.

// pIC50 lookup, one value per entry
tested target: M2 (Homo sapiens)
Sequence (P08172 whole entry): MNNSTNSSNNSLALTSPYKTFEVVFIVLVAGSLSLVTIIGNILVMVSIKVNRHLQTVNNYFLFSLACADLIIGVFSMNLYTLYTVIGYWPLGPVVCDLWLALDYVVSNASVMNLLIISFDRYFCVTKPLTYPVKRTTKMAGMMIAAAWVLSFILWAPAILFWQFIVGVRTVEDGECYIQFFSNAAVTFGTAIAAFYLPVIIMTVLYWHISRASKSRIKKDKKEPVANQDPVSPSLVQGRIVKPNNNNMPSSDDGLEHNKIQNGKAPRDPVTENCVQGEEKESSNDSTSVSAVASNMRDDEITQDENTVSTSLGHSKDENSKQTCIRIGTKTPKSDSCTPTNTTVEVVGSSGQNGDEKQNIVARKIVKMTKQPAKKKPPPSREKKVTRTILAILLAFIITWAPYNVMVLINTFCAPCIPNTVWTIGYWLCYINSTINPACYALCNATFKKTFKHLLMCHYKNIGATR
assay details: GPCR Calcium Flux assay (FLIPR tetra, Eurofins), M2
assay context: 8 concentrations 10 to 0.0006 uM; read-out: 50% inhibitory concentration (IC50) M2
Where a name gives a salt, the structure may show the parent alone.
Please express pIC50 as -log10 of the molar concentration.

Example entries begin here.
compound | endpoint | experimental result
CNCc1cn(S(=O)(=O)c2ccc(F)c(F)c2)c(-c2c(F)cccc2F)c1OC [Example 19, hydrochloride] | pIC50 | 6.09
CNCc1cn(S(=O)(=O)c2cccc(F)c2)c(-c2c(F)cccc2F)c1OC [Example 13, hydrochloride] | pIC50 | 6.29
CNCc1cn(S(=O)(=O)c2cccc(F)c2)c(-c2c(F)cc(F)cc2F)c1OC.Cl [Example 22, hydrochloride] | pIC50 | 6.00

Then there is this compound:
Prompt line: Which pIC50 reading was recorded for the compound CNCc1cn(S(=O)(=O)c2cccc(F)c2)c(-c2ccc(F)cc2F)c1OC.Cl [Example 8, hydrochloride] ?
Response line: 6.19

----------
tested target: proton pump (H+/K+-ATPase) (Sus scrofa)
Construct: Gastric vesicles were prepared from a hog stomach
Sequence (P19156 2-1034 limits assumed): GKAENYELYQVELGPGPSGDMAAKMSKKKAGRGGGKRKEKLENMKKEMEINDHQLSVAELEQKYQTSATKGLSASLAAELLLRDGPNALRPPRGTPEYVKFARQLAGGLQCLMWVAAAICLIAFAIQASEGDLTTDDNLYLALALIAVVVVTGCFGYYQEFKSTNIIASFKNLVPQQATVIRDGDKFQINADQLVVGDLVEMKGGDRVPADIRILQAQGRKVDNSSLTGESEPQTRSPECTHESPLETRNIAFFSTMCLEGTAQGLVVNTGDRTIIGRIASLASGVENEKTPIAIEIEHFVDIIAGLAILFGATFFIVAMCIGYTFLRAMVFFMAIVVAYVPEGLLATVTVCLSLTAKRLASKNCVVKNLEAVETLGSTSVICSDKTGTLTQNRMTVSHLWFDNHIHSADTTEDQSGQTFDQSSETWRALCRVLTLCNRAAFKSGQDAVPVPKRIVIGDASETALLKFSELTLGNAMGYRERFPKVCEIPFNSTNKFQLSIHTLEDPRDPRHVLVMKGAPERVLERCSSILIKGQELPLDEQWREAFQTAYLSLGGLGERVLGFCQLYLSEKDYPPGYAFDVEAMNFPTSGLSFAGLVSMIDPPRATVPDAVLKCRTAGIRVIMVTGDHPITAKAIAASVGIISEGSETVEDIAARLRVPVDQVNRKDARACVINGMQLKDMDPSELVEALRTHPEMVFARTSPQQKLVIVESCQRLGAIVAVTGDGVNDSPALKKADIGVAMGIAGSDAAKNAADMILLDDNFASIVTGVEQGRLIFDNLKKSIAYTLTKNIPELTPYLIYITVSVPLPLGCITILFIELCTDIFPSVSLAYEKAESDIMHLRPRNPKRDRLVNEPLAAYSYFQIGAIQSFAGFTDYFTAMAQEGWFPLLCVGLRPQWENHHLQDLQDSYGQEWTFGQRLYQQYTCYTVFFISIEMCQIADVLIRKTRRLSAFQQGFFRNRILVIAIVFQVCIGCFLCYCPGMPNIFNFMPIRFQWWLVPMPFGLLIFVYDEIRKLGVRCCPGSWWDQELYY
Sequence (P18434 whole entry partner): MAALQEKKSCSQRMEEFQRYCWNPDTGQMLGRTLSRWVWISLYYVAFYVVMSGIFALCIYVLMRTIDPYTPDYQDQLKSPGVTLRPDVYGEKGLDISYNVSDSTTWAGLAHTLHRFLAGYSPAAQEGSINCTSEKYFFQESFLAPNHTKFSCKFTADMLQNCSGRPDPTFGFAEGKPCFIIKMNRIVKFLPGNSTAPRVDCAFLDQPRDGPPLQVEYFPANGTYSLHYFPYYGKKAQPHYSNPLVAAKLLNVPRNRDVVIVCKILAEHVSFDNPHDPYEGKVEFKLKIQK
assay details: Inhibitory effects on proton pump (H+/K+-ATPase) activity, gastric vesicles, malachite green Pi detection
assay context: hog gastric vesicles, 37° C. 40 minutes, pH 7.4
Structures can show the parent of a compound that is named as a salt.
endpoint: IC50
Give the figure together with its unit, number first.

Solved cases (2 shown):
compound | IC50
CNCc1cn(S(=O)(=O)c2cccc(F)c2)c(-c2c(F)cc(F)cc2F)c1OC.Cl [Example 22, hydrochloride] | 0.014 µM
CNCc1cn(S(=O)(=O)c2cccc(C(F)(F)F)c2)c(-c2ccccc2F)c1OC [Example 2, hydrochloride] | 0.015 µM

Prompt line: I am curious: what IC50 value has been reported for CNCc1cn(S(=O)(=O)c2cccc(F)c2)c(-c2ccc(F)cc2F)c1OC.Cl [Example 8, hydrochloride] ?
Response line: 0.024 µM

----------
# maps each entry to its inhibition at 10 µM
tested target: UniProtKB P08172
assay details: GPCR Calcium Flux assay (FLIPR tetra, Eurofins), M2
Format: cell-based
assay context: single concentration of 10 uM; read-out: inhibition rate (%) M2
Where a name gives a salt, the structure may show the parent alone.
The figure you give is taken to be in %; do not add the unit.

The cases that follow already have their inhibition at 10 µM on record.
compound | inhibition at 10 µM (%)
CNCc1cn(S(=O)(=O)c2cccc(C(F)(F)F)c2)c(-c2cc(F)ccc2F)c1OC [Example 32, hydrochloride] | 10.8
CNCc1cn(S(=O)(=O)c2cccc(Cl)c2)c(-c2ccccc2F)c1OC [Example 1, hydrochloride] | 66.5

Prompt line: # input compound: CNCc1cn(S(=O)(=O)c2cccc(F)c2)c(-c2c(F)cccc2Cl)c1OC [Example 20, hydrochloride] ; wanted: its inhibition at 10 µM
Response line: 90.5

Prompt line: Which inhibition at 10 µM is listed for CNCc1cn(S(=O)(=O)c2cccc(OC(F)F)c2)c(-c2ccccc2F)c1OC [Example 4, hydrochloride] ?
Response line: 22

Prompt line: What measured inhibition at 10 µM goes with CNCc1cn(S(=O)(=O)c2cccc(OC)c2)c(-c2ccccc2Cl)c1OC [Example 5, hydrochloride] ?
Response line: 75.1

Prompt line: Can you look up the measured inhibition at 10 µM of CNCc1cn(S(=O)(=O)c2cccc(C(F)(F)F)c2)c(-c2ccc(F)cc2F)c1OC [Example 9, hydrochloride] for me?
Response line: 18.3

Prompt line: Which inhibition at 10 µM value belongs to CNCc1cn(S(=O)(=O)c2cccc(Cl)c2)c(-c2ccc(Cl)cc2F)c1OC [Example 6, hydrochloride] ?
Response line: 15.1

----------
tested target: 5-HT2A (Homo sapiens)
Sequence (P28223 whole entry): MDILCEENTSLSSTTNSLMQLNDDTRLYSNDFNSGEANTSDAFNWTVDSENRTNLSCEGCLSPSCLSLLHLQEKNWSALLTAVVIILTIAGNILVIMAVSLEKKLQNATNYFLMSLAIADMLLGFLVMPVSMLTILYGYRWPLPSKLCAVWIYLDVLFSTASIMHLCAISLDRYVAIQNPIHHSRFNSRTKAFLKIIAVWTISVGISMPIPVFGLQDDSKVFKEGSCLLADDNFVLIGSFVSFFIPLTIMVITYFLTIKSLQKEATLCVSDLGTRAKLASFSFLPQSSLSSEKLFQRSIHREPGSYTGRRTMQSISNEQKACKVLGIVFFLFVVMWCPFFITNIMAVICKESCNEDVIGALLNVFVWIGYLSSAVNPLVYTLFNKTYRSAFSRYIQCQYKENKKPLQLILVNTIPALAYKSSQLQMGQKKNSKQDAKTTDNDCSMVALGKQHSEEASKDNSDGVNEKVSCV
assay details: GPCR Calcium Flux assay (FLIPR tetra, Eurofins), 5-HT2A
Assay type: cell-based
assay context: single concentration of 10 uM; read-out: inhibition rate (%) 5-HT2A
Structures can show the parent of a compound that is named as a salt.
# inhibition at 10 µM annotations
Express your answer in %, writing the number without its unit.

compound | experimental result
CNCc1cn(S(=O)(=O)c2ccc(F)c(Cl)c2)c(-c2c(F)cccc2F)c1OC [Example 18, hydrochloride] | 98.1
CNCc1cn(S(=O)(=O)c2cccc(OC)c2)c(-c2ccccc2F)c1OC [Example 3, hydrochloride] | 94
CNCc1cn(S(=O)(=O)c2cccc(Cl)c2)c(-c2ccc(Cl)cc2F)c1OC [Example 6, hydrochloride] | 102
CNCc1cn(S(=O)(=O)c2ccc(F)c(F)c2)c(-c2c(F)cccc2F)c1OC [Example 19, hydrochloride] | 102
CNCc1cn(S(=O)(=O)c2cccc(F)c2)c(-c2c(F)cccc2F)c1OC [Example 13, hydrochloride] | 102
CNCc1cn(S(=O)(=O)c2cccc(OC(F)F)c2)c(-c2ccccc2F)c1OC [Example 4, hydrochloride] | 96
CNCc1cn(S(=O)(=O)c2cccc(OC)c2)c(-c2ccccc2Cl)c1OC [Example 5, hydrochloride] | 69.1
CNCc1cn(S(=O)(=O)c2cccc(C(F)(F)F)c2)c(-c2c(F)cc(F)cc2F)c1OC [Example 24, hydrochloride] | 62.2

Prompt line: Given the entry CNCc1cn(S(=O)(=O)c2cccc(F)c2)c(-c2c(F)cccc2Cl)c1OC [Example 20, hydrochloride] , report its measured inhibition at 10 µM.
Response line: 99.2

Prompt line: // inhibition at 10 µM lookup, key: CNCc1cn(S(=O)(=O)c2cccc(OC(F)F)c2)c(-c2ccc(F)cc2F)c1OC [Example 12, hydrochloride]
Response line: 101

Prompt line: For the compound CNCc1cn(S(=O)(=O)c2cccc(Cl)c2)c(-c2ccccc2F)c1OC [Example 1, hydrochloride] , what inhibition at 10 µM is on record?
Response line: 96.4

Prompt line: Value lookup for inhibition at 10 µM; key = CNCc1cn(S(=O)(=O)c2cccc(C(F)(F)F)c2)c(-c2c(F)ccc(F)c2F)c1OC [Example 29, hydrochloride]
Response line: 35.7

----------
tested target: M1 (Homo sapiens, UniProt P11229)
Sequence (P11229 whole entry): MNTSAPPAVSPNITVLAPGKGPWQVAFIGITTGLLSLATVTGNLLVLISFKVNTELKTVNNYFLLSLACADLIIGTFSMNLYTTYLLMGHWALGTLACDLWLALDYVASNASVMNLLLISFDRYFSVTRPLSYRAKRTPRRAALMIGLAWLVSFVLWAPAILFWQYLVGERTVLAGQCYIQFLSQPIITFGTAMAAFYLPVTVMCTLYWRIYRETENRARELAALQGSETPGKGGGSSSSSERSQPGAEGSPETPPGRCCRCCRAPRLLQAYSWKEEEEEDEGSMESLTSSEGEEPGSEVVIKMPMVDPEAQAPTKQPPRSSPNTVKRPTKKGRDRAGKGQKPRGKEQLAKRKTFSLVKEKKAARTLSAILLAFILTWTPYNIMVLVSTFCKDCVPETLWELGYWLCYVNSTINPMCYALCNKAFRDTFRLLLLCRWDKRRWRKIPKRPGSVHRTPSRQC
assay details: GPCR Calcium Flux assay (FLIPR tetra, Eurofins), M1
assay context: 8 concentrations 10 to 0.0006 uM; read-out: 50% inhibitory concentration (IC50) M1
Where a name gives a salt, the structure may show the parent alone.
Label scheme, based on IC50: I (below 400 nM), II (400 nM to below 1000 nM), III (1000 nM or more)

compound | category
CNCc1cn(S(=O)(=O)c2cccc(F)c2)c(-c2c(F)cc(F)cc2F)c1OC.Cl [Example 22, hydrochloride] | I
CNCc1cn(S(=O)(=O)c2cccc(C)c2)c(-c2ccc(F)cc2F)c1OC [Example 10, hydrochloride] | III
CNCc1cn(S(=O)(=O)c2cccc(F)c2)c(-c2cc(F)ccc2F)c1OC [Example 31, hydrochloride] | I
CNCc1cn(S(=O)(=O)c2cccc(C)c2)c(-c2c(F)cccc2F)c1OC [Example 16, fumarate] | III
CNCc1cn(S(=O)(=O)c2cccc(Cl)c2)c(-c2c(F)ccc(F)c2F)c1OC [Example 28, hydrochloride] | II
CNCc1cn(S(=O)(=O)c2cccc(OC)c2)c(-c2c(F)ccc(F)c2F)c1OC [Example 30, hydrochloride] | III
CNCc1cn(S(=O)(=O)c2cccc(C(F)(F)F)c2)c(-c2c(F)cc(F)cc2F)c1OC [Example 24, hydrochloride] | III
CNCc1cn(S(=O)(=O)c2ccc(F)c(F)c2)c(-c2c(F)cccc2F)c1OC [Example 19, hydrochloride] | II
CNCc1cn(S(=O)(=O)c2cccc(OC)c2)c(-c2ccc(F)cc2F)c1OC [Example 11, hydrochloride] | III
CNCc1cn(S(=O)(=O)c2cccc(Cl)c2)c(-c2ccccc2F)c1OC [Example 1, hydrochloride] | III

Prompt line: Band for CNCc1cn(S(=O)(=O)c2cccc(F)c2)c(-c2ccc(F)cc2F)c1OC.Cl [Example 8, hydrochloride] ?
Response line: I

Prompt line: Pick a category. Item: CNCc1cn(S(=O)(=O)c2cccc(F)c2)c(-c2c(F)cccc2F)c1OC [Example 13, hydrochloride]
Response line: I

----------
The reader will find reported inhibition at 10 µM values listed item by item below.
tested target: M2 (Homo sapiens)
assay details: GPCR Calcium Flux assay (FLIPR tetra, Eurofins), M2
Format: cell-based
assay context: single concentration of 10 uM; read-out: inhibition rate (%) M2
Counter-ions that a name gives are not always drawn.
# number only, unit % dropped from output

compound | experimental result
CNCc1cn(S(=O)(=O)c2cccc(C(F)(F)F)c2)c(-c2c(F)cc(F)cc2F)c1OC [Example 24, hydrochloride] | 22
CNCc1cn(S(=O)(=O)c2cccc(OC)c2)c(-c2c(F)cccc2F)c1OC [Example 17, hydrochloride] | 60.1
CNCc1cn(S(=O)(=O)c2cccc(Cl)c2)c(-c2c(F)ccc(F)c2F)c1OC [Example 28, hydrochloride] | 61.9
CNCc1cn(S(=O)(=O)c2cccc(OC(F)F)c2)c(-c2ccc(F)cc2F)c1OC [Example 12, hydrochloride] | 28.7
CNCc1cn(S(=O)(=O)c2cccc(C(F)(F)F)c2)c(-c2c(F)ccc(F)c2F)c1OC [Example 29, hydrochloride] | 19.4
CNCc1cn(S(=O)(=O)c2cccc(C(F)(F)F)c2)c(-c2ccccc2F)c1OC [Example 2, hydrochloride] | -4.7

Next, consider the following compound.
Prompt line: Which inhibition at 10 µM reading was recorded for the compound CNCc1cn(S(=O)(=O)c2cccc(C(F)(F)F)c2)c(-c2ccc(Cl)cc2F)c1OC [Example 7, hydrochloride] ?
Response line: 0.8
